assay: Theophylline blood levels as a function of time after oral administration, with and without nicotinic acid (Example 1); conditions: human, in vivo, po, 300 mg
parameter: concentration at 1.05 h (ng/mL)
A number alone suffices; assume ng/mL.

*Q* // concentration at 1.05 h lookup, key: Cn1c(=O)c2[nH]cnc2n(C)c1=O [Theophylline, theophylline]
*A* 2200

Cited source: patent US5126348A
